Reported Ca^2+ - EC50 [nM] (intracellular calcium mobilization, Fluo-4AM) is given for each of the following binders.
Target: human GHS-R1a receptor (growth hormone secretagogue receptor 1a) (human, UniProt Q92847 1-366)
Sequence (Q92847 whole entry): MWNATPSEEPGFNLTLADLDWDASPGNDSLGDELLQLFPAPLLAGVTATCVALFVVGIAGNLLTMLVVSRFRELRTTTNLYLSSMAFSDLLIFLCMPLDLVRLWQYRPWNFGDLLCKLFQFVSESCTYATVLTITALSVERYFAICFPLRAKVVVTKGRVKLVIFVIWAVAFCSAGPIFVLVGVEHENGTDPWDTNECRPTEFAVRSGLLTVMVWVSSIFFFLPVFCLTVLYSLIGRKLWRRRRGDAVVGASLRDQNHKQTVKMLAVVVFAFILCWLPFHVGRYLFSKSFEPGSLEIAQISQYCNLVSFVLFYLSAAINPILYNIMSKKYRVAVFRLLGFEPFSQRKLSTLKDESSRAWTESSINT
Assay: cell-based or functional assay
Report only the number, with the unit nM understood.

Study these solved cases before continuing.
binder	unit abbrev	test value
XSXXLSPEHQKAQQRKESKKPPAKLQPR (sarcosine (Sar) at position 1; diaminopropionic acid N-myristoyl (Dpr-N-myr) at position 3; 1-naphtylalanine (1-Nal) at position 4, Synthetic ghrelin analog) [ghrelin analog no. 4, (Sar)S(Dpr-N-myr)(1-Nal)LSPEHQKAQQRKESKKPPAKLQPR]	nM	10.9
XSXFLSPEHQKAQQRKESKKPPAKLQPR (sarcosine (Sar) at position 1; diaminopropionic acid N-myristoyl (Dpr-N-myr) at position 3, Synthetic ghrelin analog; also called analog 2) [ghrelin analog no. 2, (Sar)S(Dpr-N-myr)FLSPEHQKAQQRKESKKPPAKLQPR]	nM	36.6

Form: binder = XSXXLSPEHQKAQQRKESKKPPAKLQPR (sarcosine (Sar) at position 1; diaminopropionic acid N-decanoyl (Dpr-N-dec) at position 3; cyclohexylalanine (Cha) at position 4, Synthetic ghrelin analog) [ghrelin analog no. 5, (Sar)S(Dpr-N-dec)(Cha)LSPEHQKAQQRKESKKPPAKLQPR] ; Ca^2+ - EC50 [nM] (intracellular calcium mobilization, Fluo-4AM) = 10.6

Form: binder = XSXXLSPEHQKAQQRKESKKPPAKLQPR (sarcosine (Sar) at position 1; diaminopropionic acid N-myristoyl (Dpr-N-myr) at position 3; cyclohexylalanine (Cha) at position 4, Synthetic ghrelin analog) [ghrelin analog no. 6, (Sar)S(Dpr-N-myr)(Cha)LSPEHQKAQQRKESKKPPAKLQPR] ; Ca^2+ - EC50 [nM] (intracellular calcium mobilization, Fluo-4AM) = 11.4

Form: binder = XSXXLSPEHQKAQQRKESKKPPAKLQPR (sarcosine (Sar) at position 1; diaminopropionic acid N-decanoyl (Dpr-N-dec) at position 3; 1-naphtylalanine (1-Nal) at position 4, Synthetic ghrelin analog) [ghrelin analog no. 3, (Sar)S(Dpr-N-dec)(1-Nal)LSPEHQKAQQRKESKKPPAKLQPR] ; Ca^2+ - EC50 [nM] (intracellular calcium mobilization, Fluo-4AM) = 18.6

Form: binder = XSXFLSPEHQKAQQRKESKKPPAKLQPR (sarcosine (Sar) at position 1; diaminopropionic acid N-decanoyl (Dpr-N-dec) at position 3, Synthetic ghrelin analog) [ghrelin analog no. 1, (Sar)S(Dpr-N-dec)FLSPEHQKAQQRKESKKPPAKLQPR] ; Ca^2+ - EC50 [nM] (intracellular calcium mobilization, Fluo-4AM) = 9.66
